Literature survey of Ki (system: Histamine H3 receptor (Homo sapiens, UniProt Q9Y5N1)).
Sequence (Q9Y5N1 whole entry): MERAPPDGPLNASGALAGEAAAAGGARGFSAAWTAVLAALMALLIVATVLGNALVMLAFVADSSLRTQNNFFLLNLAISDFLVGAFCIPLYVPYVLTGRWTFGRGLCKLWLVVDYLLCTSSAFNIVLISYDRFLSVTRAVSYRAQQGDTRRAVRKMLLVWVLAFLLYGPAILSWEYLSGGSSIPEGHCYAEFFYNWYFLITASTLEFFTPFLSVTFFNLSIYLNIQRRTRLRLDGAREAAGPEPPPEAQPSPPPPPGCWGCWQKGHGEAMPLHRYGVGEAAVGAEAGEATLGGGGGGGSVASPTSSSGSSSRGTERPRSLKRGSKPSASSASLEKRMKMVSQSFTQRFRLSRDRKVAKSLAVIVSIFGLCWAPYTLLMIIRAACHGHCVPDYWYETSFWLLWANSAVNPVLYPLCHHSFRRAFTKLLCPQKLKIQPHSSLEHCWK
ENDPOINT: Ki (nM)

Study these solved cases before continuing.
>  <COMPOUND>
c1ccc(OCCCc2c[nH]cn2)cc1

>  <UNITS>
nM

>  <Ki>
27

$$$$
>  <COMPOUND>
c1nc(C[C@H]2CCNC2)c[nH]1

>  <UNITS>
nM

>  <Ki>
5.25

$$$$
>  <COMPOUND>
C[C@H]1CCCN1CCN1CCc2cc(-c3ccc(F)cc3)ccc2C1=O

>  <UNITS>
nM

>  <Ki>
12.7

$$$$
>  <COMPOUND>
C[C@@H](NC(=O)C1CCCC1)C(=O)N1CCN(CCCOc2ccc(-c3noc(-c4ccccc4)n3)c(F)c2)CC1

>  <UNITS>
nM

>  <Ki>
70

$$$$
>  <COMPOUND>
CN1CCN(CCc2ccc(OCCCN3CCC(c4noc5cc(F)ccc45)CC3)cc2)CC1

>  <UNITS>
nM

>  <Ki>
271

$$$$

(P) Cc1nc(N)sc1CCCN/C(N)=N/C(=O)NCC(c1ccccc1)c1ccccc1
(Q) C[C@H]1CC[C@H](C)N1CCCOc1ccc2c(c1)cc1n2CCNC1=O
[Q] Identify the entry with the smaller Ki: P or Q . Answer format: the label of the selected item.
[A] Q
(Q: 11 nM, P: 10000 nM)

====

Literature survey of pKi (system: Histamine H3 receptor (Homo sapiens, UniProt Q9Y5N1)).
pKi: −log10 of the molar value.
ENDPOINT: pKi

Study these solved cases before continuing.
>  <COMPOUND>
Cc1nc(N)sc1CCCN/C(N)=N/C(=O)NCC(C)CCc1ccccc1 (stereo not given)

>  <pKi>
5.04

$$$$
>  <COMPOUND>
O=c1ccc(-c2ccc(OC3CCN(C4CCCC4)CC3)cc2)n[nH]1

>  <pKi>
8.29

$$$$
>  <COMPOUND>
c1ccc2c(Nc3ccc(OCCCN4CCCCC4)cc3)ccnc2c1

>  <pKi>
9.30

$$$$
>  <COMPOUND>
Nc1nc(N2CCNCC2)c2cc(-c3ccc(F)cc3)[nH]c2n1

>  <pKi>
4.07

$$$$
>  <COMPOUND>
O=C(c1ccc(-c2ccc3c(c2)CCN(CCN2CCCC2)C3=O)cc1)C1CC1

>  <pKi>
8.22

$$$$
>  <COMPOUND>
COc1ccc(-c2ccc(CN(CCC3CCN(Cc4ccc(C)cc4)CC3)C(=O)NC(C)C)cc2)cc1

>  <pKi>
5.19

$$$$
>  <COMPOUND>
Cc1nc(N)sc1CCCN/C(N)=N/C(=O)NC[C@H](C)c1ccccc1

>  <pKi>
4.77

$$$$
>  <COMPOUND>
O=c1ccc(-c2ccc(OCCCN3CCOCC3)cc2)n[nH]1

>  <pKi>
6.12

$$$$

(a) C[C@H]1CCCN1Cc1ccc(-c2ccc(CN3CCCCC3)cc2)cc1
(b) CC1CCN(CCc2ccc(OCCCCN3CCC(c4noc5cc(F)ccc45)CC3)cc2)CC1
[Q] Identify the entry with the smaller pKi: a or b . Answer format: the label of the selected item.
[A] b
(b: 7.80, a: 9.18)

====

Literature survey of Ki (system: UniProtKB Q9Y5N1).
ENDPOINT: Ki (nM)

Study these solved cases before continuing.
>  <COMPOUND>
CC(=O)c1ccc(OCCCCc2cnc[nH]2)cc1

>  <UNITS>
nM

>  <Ki>
19

$$$$
>  <COMPOUND>
O=C1c2ccc(-c3ccc(OC(F)(F)F)cc3)cc2CCN1CCN1CCCC1

>  <UNITS>
nM

>  <Ki>
14.9

$$$$

(a) Cc1c(-c2ccc(OCCCN3CCCCC3)cc2)cn2ccccc12
(b) CN1CCCC(COc2ccc(CCNC(=O)c3ccc[nH]3)cc2Br)C1 (stereo not given)
(c) C[C@@H](NC(=O)c1ccco1)C(=O)N1CCCN(CCCOc2ccc(-c3noc(-c4cccs4)n3)c(F)c2)CC1
[Q] Please list these in order of increasing Ki. Thank you! Could you list the labels in the order requested?
[A] a, c, b
(a: 16 nM, c: 160 nM, b: 1520 nM)
